// data source = paper PMC5540273

Here, each record is paired with measured %Inh data.
# Tested on: STK36;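 note: KINOMEscan kinase panel screen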
# CONDITION LABEL: concentration: 1 μM, replicates: in singlicate; n = 1
Provide the reading as a plain figure in %.

INPUT: Please give the measured %Inh for this compound: CN1CCC(n2cnc(-c3ccc(F)cc3)c2-c2ccnc(NC3CCNCC3)n2)CC1
OUTPUT: 24

INPUT: Please give the measured %Inh for this compound: O=C(Nc1n[nH]c2nc(-c3ccco3)c(Br)cc12)c1ccc(CN2CCCC2)cc1.O=C(O)[C@H](O)[C@@H](O)C(=O)O
OUTPUT: 54

INPUT: Please give the measured %Inh for this compound: CSc1ccc(NC2=C(c3ccccc3Cl)C(=O)NC2=O)cc1
OUTPUT: 48

INPUT: Please give the measured %Inh for this compound: Nc1nccc2scc(-c3ccc4c(c3)CCN4C(=O)Cc3cc(F)ccc3F)c12
OUTPUT: 0

INPUT: Please give the measured %Inh for this compound: Cn1ccc2ncnc(Nc3ccc(Oc4cccc(Cl)c4)c(Cl)c3)c21
OUTPUT: 6

INPUT: Please give the measured %Inh for this compound: Fc1cccc(COc2ccc(Nc3ncnc4cc[nH]c34)cc2Cl)c1
OUTPUT: 33

INPUT: Please give the measured %Inh for this compound: O=C(Nc1ccccc1F)NC1CCN(c2ccnc(Nc3ccc(F)cc3)n2)C1 (centres unmarked)
OUTPUT: 0

Further cases:
INPUT: Please give the measured %Inh for this compound: CC(C)N1CCC(n2cnc(-c3ccc(F)cc3)c2-c2ccnc(N)n2)CC1
OUTPUT: 26
